FYI, the data here is from PubChem BioAssay (NCATS).

Target: Rap guanine nucleotide exchange factor 3 (Homo sapiens) (UniProt O95398)
Sequence (O95398 whole entry, looked up): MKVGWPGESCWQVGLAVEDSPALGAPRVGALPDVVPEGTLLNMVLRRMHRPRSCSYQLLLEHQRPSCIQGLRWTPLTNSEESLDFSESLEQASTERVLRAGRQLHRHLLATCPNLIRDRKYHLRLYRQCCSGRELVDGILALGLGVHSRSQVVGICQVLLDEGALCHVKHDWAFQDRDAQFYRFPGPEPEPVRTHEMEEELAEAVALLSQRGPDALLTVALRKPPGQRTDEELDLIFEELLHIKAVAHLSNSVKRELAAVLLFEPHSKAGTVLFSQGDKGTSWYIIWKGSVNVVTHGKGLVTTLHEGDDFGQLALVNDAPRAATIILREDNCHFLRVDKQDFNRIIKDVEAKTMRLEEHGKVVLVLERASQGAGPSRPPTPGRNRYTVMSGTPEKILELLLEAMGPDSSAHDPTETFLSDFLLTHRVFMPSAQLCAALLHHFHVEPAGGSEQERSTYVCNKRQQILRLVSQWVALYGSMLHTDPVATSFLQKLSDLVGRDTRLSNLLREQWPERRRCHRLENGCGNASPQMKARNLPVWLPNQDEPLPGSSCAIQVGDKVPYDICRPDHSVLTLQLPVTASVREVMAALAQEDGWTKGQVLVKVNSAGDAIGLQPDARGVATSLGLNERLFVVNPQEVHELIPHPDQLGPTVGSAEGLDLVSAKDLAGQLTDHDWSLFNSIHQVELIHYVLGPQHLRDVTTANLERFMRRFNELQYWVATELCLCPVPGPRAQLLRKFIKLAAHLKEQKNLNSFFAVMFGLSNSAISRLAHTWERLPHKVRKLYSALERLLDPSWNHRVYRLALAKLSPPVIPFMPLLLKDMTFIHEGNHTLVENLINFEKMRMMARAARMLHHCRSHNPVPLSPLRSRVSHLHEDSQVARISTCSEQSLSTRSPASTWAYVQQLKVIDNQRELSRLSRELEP
Experiment: Counterscreen qHTS for antagonist of cAMP-regulated guanine nucleotide exchange factor 3 (EPAC1) (AID 1645888);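 further: fluorescence loss as bound BODIPY-GDP is released from Rap1B; % of control where 0% means no effect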
Conditions: Rap1B-BODIPY-GDP nucleotide exchange, fluorescence; series mostly up to 154 µM
Inconclusive results are not listed. Calls of active or inactive are those of the source. The call rests on the fitted dose curve; in most records, active means well fitted inhibition curve with a large enough effect; inconclusive means small, poorly fitted or top-dose-only effect; inactive means no such curve, though single readings can be large or run the other way.
quantity-kind: activity change, negative = inhibition

{"molecule": "Nc1nc(C(c2ccccc2)c2ccccc2)cs1", "endpoint-result": "inactive"}
{"molecule": "CCCCn1nnnc1C(c1cc2ccccc2o1)N1CCCC1 (stereo unspecified)", "endpoint-result": "inactive"}
{"molecule": "CCOC(=O)c1c(NC(=O)/C=C/C(=O)O)sc(C)c1-c1ccc(C(C)(C)C)cc1", "endpoint-result": "inactive"}
{"molecule": "CCCCC[C@@H](C)N1C[C@@H](COCc2ccccc2)Oc2cc(N3CC[C@H](O)C3)ccc2S1(=O)=O", "endpoint-result": "-7.58% [at 30.8 µM] (inactive)"}
{"molecule": "COc1cccc(N(C(=O)c2ccco2)C(C(=O)NC2CCCC2)c2cccnc2)c1 (stereo unspecified)", "endpoint-result": "inactive"}
{"molecule": "COc1ccccc1-c1oc2ccccc2c1C#CC(C)(C)O", "endpoint-result": "inactive"}
{"molecule": "COc1ccccc1NC(=O)/C(C#N)=C/c1cc([N+](=O)[O-])ccc1N1CCCC1", "endpoint-result": "inactive"}
{"molecule": "CCOc1ccc(C(=O)N/N=C/c2cc(Cl)ccc2[N+](=O)[O-])cc1", "endpoint-result": "-12.2% [at 30.8 µM] (inactive)"}

Let's switch to this molecule now.
**Query** Determine from records and report activity change, negative = inhibition for Cc1ccc(C(=O)Nc2ccccc2[N+](=O)[O-])cc1S(=O)(=O)N1CCOCC1
**Result** inactive

----------
Biological target: Rap guanine nucleotide exchange factor 3 (Homo sapiens) (UniProt O95398)
Assay: Counterscreen qHTS for antagonist of cAMP-regulated guanine nucleotide exchange factor 3 (EPAC1) (AID 1645888);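 further: fluorescence loss as bound BODIPY-GDP is released from Rap1B; % of control where 0% means no effect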
Conditions: Rap1B-BODIPY-GDP nucleotide exchange, fluorescence; series mostly up to 154 µM
Inconclusive results are not listed. Activity calls are given as the source filed them. The call rests on the fitted dose curve; in most records, active means well fitted inhibition curve with a large enough effect; inconclusive means small, poorly fitted or top-dose-only effect; inactive means no such curve, though single readings can be large or run the other way.
quantity-kind: activity change, negative = inhibition

{"compound": "O=C(CN1C(=O)/C(=C2/SC(=S)N(CCS(=O)(=O)O)C2=O)c2ccccc21)Nc1cccc(C(F)(F)F)c1", "quantity-kind": "activity change, negative = inhibition", "endpoint-result": "-24.5% [at 30.8 µM] (inactive)"}
{"compound": "COc1cc(/C=C2\\SC(=S)N(CCCCC(=O)O)C2=O)ccc1OS(=O)(=O)c1ccc(C)cc1", "quantity-kind": "activity change, negative = inhibition", "endpoint-result": "-18.6% [at 30.8 µM] (inactive)"}
{"compound": "COC(=O)CC1(C(=O)OC)Oc2ccc(Br)cc2C(=O)N1c1cccc(Cl)c1Cl (configuration not stated)", "quantity-kind": "activity change, negative = inhibition", "endpoint-result": "inactive"}
{"compound": "NNc1cccc(C=Cc2ccccc2)cc1=O", "quantity-kind": "activity change, negative = inhibition", "endpoint-result": "-9.39% [at 30.8 µM] (inactive)"}
{"compound": "COc1ccc(Cn2c(-c3ccc(C)cc3)nc3c(c(=O)c4ccccc4n3C)c2=O)cc1", "quantity-kind": "activity change, negative = inhibition", "endpoint-result": "-16.2% [at 30.8 µM] (inactive)"}

**Query** Determine from records and report activity change, negative = inhibition for COC(=O)C1=CN(Cc2ccc(OC)c(OC)c2)C=C(C(=O)OC)C1c1ccccc1F
**Result** inactive

**Query** Determine from records and report activity change, negative = inhibition for Cc1noc(C)c1C(=O)N(CC(C)C)c1nc2ccccc2s1
**Result** inactive

**Query** Determine from records and report activity change, negative = inhibition for O=c1cc(Cl)c(-c2ccccc2)nn1Cc1ccc(Cl)cc1
**Result** inactive

**Query** Determine from records and report activity change, negative = inhibition for CCc1nc2c(OCc3ccc(C(F)(F)F)cc3)cccn2c1N(C)C(=O)C(C)C
**Result** -5.96% [at 30.8 µM] (inactive)
